- system: T1, hBCMA (human BCMA) (Homo sapiens, UniProt Q02223)
- T1 sequence (Q02223 1-184): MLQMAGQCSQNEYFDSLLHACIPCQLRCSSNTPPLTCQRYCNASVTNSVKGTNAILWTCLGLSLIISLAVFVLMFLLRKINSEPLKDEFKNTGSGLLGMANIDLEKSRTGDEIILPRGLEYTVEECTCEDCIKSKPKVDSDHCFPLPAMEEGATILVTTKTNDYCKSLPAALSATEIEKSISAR
- assay: Kinetics and affinity of hBCMA/human IgG interactions by SPR (Bio-Rad Proteon XPR36)
- Format: binding
- measurementSetup: huBCMA, 37° C.
readoutLabel: ka (1/Ms) huBCMA @ 37° C. (M⁻¹ s⁻¹)
Give just the number in M⁻¹ s⁻¹; leave the unit off.

molecule	endpointUnit	ka (1/Ms) huBCMA @ 37° C.
L3.PY/L1.FF/H3.AE: anti-BCMA antibody (antibody, V domains shown) VH: EVQLLESGGGLVQPGGSLRLSCAASGFTFGSYAMTWVRQAPGKGLEWVSAISGSGGNTFYADSVKGRFTISRDNSKNTLYLQMNSLRAEDTAVYYCARVSPIAAEMDYWGQGTLVTVSS VL: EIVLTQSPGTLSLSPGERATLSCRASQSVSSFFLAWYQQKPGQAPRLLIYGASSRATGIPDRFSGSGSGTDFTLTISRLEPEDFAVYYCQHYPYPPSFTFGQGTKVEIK	M⁻¹ s⁻¹	3.82e+06
L3.PY/H2.HA: anti-BCMA antibody (antibody, V domains shown) VH: EVQLLESGGGLVQPGGSLRLSCAASGFTFGSYAMTWVRQAPGKGLEWVSAISHAGGNTFYADSVKGRFTISRDNSKNTLYLQMNSLRAEDTAVYYCARVSPIASGMDYWGQGTLVTVSS VL: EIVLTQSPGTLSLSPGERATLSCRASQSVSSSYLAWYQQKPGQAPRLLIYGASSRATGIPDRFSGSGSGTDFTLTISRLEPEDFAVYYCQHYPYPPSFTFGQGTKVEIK	M⁻¹ s⁻¹	2.43e+06
L3.PY/L1.PS/H2.LT: anti-BCMA antibody (antibody, V domains shown) VH: EVQLLESGGGLVQPGGSLRLSCAASGFTFGSYAMTWVRQAPGKGLEWVSAISLTGGNTFYADSVKGRFTISRDNSKNTLYLQMNSLRAEDTAVYYCARVSPIASGMDYWGQGTLVTVSS VL: EIVLTQSPGTLSLSPGERATLSCRASQSVSSSYPSWYQQKPGQAPRLLIYGASSRATGIPDRFSGSGSGTDFTLTISRLEPEDFAVYYCQHYPYPPSFTFGQGTKVEIK	M⁻¹ s⁻¹	3.4e+06

# input // Input: L3.PY/L1.FF/H2.DY: anti-BCMA antibody (antibody, V domains shown) VH: EVQLLESGGGLVQPGGSLRLSCAASGFTFGSYAMTWVRQAPGKGLEWVSAIDYSGGNTFYADSVKGRFTISRDNSKNTLYLQMNSLRAEDTAVYYCARVSPIASGMDYWGQGTLVTVSS VL: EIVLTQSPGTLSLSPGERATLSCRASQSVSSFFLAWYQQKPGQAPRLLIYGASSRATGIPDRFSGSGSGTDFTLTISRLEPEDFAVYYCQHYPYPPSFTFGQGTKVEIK . Output its ka (1/Ms) huBCMA @ 37° C. only.
# output 4.14e+06

# input // Input: L3.PY/L3.KF/H2.YQ: anti-BCMA antibody (antibody, V domains shown) VH: EVQLLESGGGLVQPGGSLRLSCAASGFTFGSYAMTWVRQAPGKGLEWVSAISYQGGNTFYADSVKGRFTISRDNSKNTLYLQMNSLRAEDTAVYYCARVSPIASGMDYWGQGTLVTVSS VL: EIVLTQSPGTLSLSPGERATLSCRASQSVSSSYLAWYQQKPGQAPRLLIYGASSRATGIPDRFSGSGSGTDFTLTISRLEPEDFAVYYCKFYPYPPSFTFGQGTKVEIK . Output its ka (1/Ms) huBCMA @ 37° C. only.
# output 1.96e+06

meta.source: patent US11814435B2
